Tested on: 565726-208-R1-J5-PDC complex spheroids, growth inhibition;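 note: spheroids exposed to compounds for seven days before readout; 100% = DMSO vehicle control viability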
Assay notes: Anticancer human tumor 565726-208-R1-J5-PDC patient-derived pancreatic adenocarcinoma cell line growth inhibition [RAS]
Test parameters: second compound 0.03 µM; first compound 1 µM; stronger effect = lower value
Please go through the items and note down their viability, T/C.
One number for each entry, in %.

Report viability, T/C, nothing else, for this molecule: Cc1nc(N2CCC3(CC2)COC(C)C3N)c(CO)nc1Sc1ccnc(N)c1Cl (centres undefined) + CCn1c(-c2cccnc2C(C)OC)c2c3cc(ccc31)N1CCOC(CC(NC(=O)C(C(C)C)N(C)C(=O)C3(F)CCN(C(=O)C#CC(C)(C)N(C)C)CC3)C(=O)N3CCCC(N3)C(=O)OCC(C)(C)C2)C1 89.3

Report viability, T/C, nothing else, for this molecule: Nc1ccn(C2OC(CO)C(O)C2(F)F)c(=O)n1 (centres undefined) + CCn1c(-c2cc(N3CCN(C)CC3)cnc2C(C)OC)c2c3cc(ccc31)-c1csc(n1)CC(NC(=O)C1CC1C)C(=O)N1CCCC(N1)C(=O)OCC(C)(C)C2 21.7

Report viability, T/C, nothing else, for this molecule: CC1(O)CCCC1n1c(=O)c(C(F)F)cc2cnc(NC3CCN(S(C)(=O)=O)CC3)nc21 (centres undefined) + CCn1c(-c2cccnc2C(C)OC)c2c3cc(ccc31)N1CCOC(CC(NC(=O)C(C(C)C)N(C)C(=O)C3(F)CCN(C(=O)C#CC(C)(C)N(C)C)CC3)C(=O)N3CCCC(N3)C(=O)OCC(C)(C)C2)C1 55

Now consider a different molecule.
Report viability, T/C, nothing else, for this molecule: CC(C)NCC(C(=O)N1CCN(c2ncnc3c2C(C)CC3O)CC1)c1ccc(Cl)cc1 (centres undefined) + CCn1c(-c2cc(N3CCN(C)CC3)cnc2C(C)OC)c2c3cc(ccc31)-c1csc(n1)CC(NC(=O)C1CC1C)C(=O)N1CCCC(N1)C(=O)OCC(C)(C)C2 28.5
